Assay: viability loss of HPDE-C7K cells – cell-based, fluorescence, HTS, primary screen (AID 431);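 also: 0% = DMSO solvent wells and 100% = doxorubicin-treated wells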
Conditions: HPDE-C7K KRASV12 cells, Alamar Blue viability, 48 h; at 10 µM; stronger effect = higher value
Out of some 63,000 compounds screened, about 1,100 (1.7%) were called active. The full list was thinned out, with actives kept by preference. Measured potencies and affinities stand elsewhere.
value_kind: cytotoxicity (%)
Hi! Could you send only the number? It should be in %, unit omitted.

• COc1cc(-c2nnc(-c3cccs3)o2)cc(OC)c1OC = -28.7
• COc1cccc(-c2nn(-c3ccccc3)cc2CO)c1 = 7.7
• Cc1cccc(C)c1NC(=O)CSc1nnc(Cn2nnc(-c3ccccc3)n2)n1-c1ccccc1 = -8.4
• Cc1noc(C)c1CSc1nnc(-c2ccncc2)n1-c1cccc(Cl)c1C = -13.5

Exercise: Note cytotoxicity for the molecule shown: O=[n+]1cc(-c2ccc(F)cc2)n([O-])c2c1CCC2
Key: -13.4

Exercise: Note cytotoxicity for the molecule shown: COc1ccc(-c2nnc(Nc3nc4c(OC)cccc4s3)o2)cc1
Key: 59.3

Exercise: Note cytotoxicity for the molecule shown: COc1ccccc1-c1nnc(Nc2nc3c(OC)cccc3s2)o1
Key: 56.1

Exercise: Note cytotoxicity for the molecule shown: Fc1cccc2sc(Nc3nnc(-c4ccccc4)o3)nc12
Key: 44.8

Exercise: Note cytotoxicity for the molecule shown: COc1cccc2sc(Nc3nnc(-c4ccccc4Cl)o3)nc12
Key: 31.7

Exercise: Note cytotoxicity for the molecule shown: CCn1c(SCC(=O)NCc2cccs2)nnc1-c1ccncc1
Key: -3.4

Exercise: Note cytotoxicity for the molecule shown: O=C(COC(=O)c1cccc(S(=O)(=O)N2CCc3ccccc32)c1)NC1CCS(=O)(=O)C1 (stereo unspecified)
Key: 23.6

---

Assay: viability loss of HPDE-C7K cells – cell-based, fluorescence, HTS, primary screen (AID 431);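 also: 0% = DMSO solvent wells and 100% = doxorubicin-treated wells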
Conditions: HPDE-C7K KRASV12 cells, Alamar Blue viability, 48 h; at 10 µM
The whole screen tested about 63,000 compounds, of which about 1,100 (1.7%) were called active.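 How the source made its calls: active means compounds whose percent cytotoxicity in the single-dose primary screen, scaled between solvent and toxic-drug controls, exceeds 50; inactive means the rest.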 Many of the other results were omitted from the sample, so actives are more common in it than they were. Measured potencies and affinities stand elsewhere.
Result category, one only: active, inactive

Solved entries (count: 5):
- c1ccc2c(c1)nc(N1CCOCC1)c1c3ccccc3[nH]c21: inactive
- COC(=O)C1CCN(C(=O)COC(=O)Cc2c[nH]c3ccccc23)CC1: inactive
- COCCCn1c(SCC(=O)N2CCCCC2C)nnc1-c1ccco1 (centres undefined): inactive
- Cc1cccn2c(=O)c3cc(C(=O)N4CCN(C(=O)c5ccco5)CC4)n(C)c3nc12: inactive
- CCCCNS(=O)(=O)c1ccc2nc(SCC(=O)c3ccc(C#N)cc3)[nH]c2c1: inactive

Exercise: Each compound tested received a call. Report the one for CCOc1ccc2nc(-c3ccccc3)[nH]c2c1 .
Key: active

Exercise: Each compound tested received a call. Report the one for O=C(NCc1ccco1)N1c2ccccc2Sc2ccccc21 .
Key: inactive

Exercise: Each compound tested received a call. Report the one for CCOc1ccc2nc(C(C)O)[nH]c2c1 (centres undefined) .
Key: inactive

Exercise: Each compound tested received a call. Report the one for Cc1cc(C)c2nc(NC3=NCN(CCN4CCOCC4)CN3)nc(C)c2c1 .
Key: inactive

Exercise: Each compound tested received a call. Report the one for COc1ccc(-c2cc(C(=O)Nc3ccccc3SC)no2)cc1OC .
Key: inactive

Exercise: Each compound tested received a call. Report the one for Cc1cc(OCc2nn[nH]n2)c2c(C)c(Cc3ccccc3)c(=O)oc2c1 .
Key: inactive

Exercise: Each compound tested received a call. Report the one for CCOc1ccc(-c2[nH]ncc2Oc2ccccc2OC)c(O)c1 .
Key: active

Exercise: Each compound tested received a call. Report the one for C=CCOC(=O)CCC(=O)Nc1cc(OC)nc(OC)n1 .
Key: active

Exercise: Each compound tested received a call. Report the one for CC1(C)CC(=O)c2cnn(-c3nc4ccccc4[nH]3)c2C1 .
Key: inactive

Exercise: Each compound tested received a call. Report the one for C#CCOC(=O)CCC(=O)Nc1cc(OC)nc(OC)n1 .
Key: inactive

Exercise: Each compound tested received a call. Report the one for O=C(COC(=O)c1ccc2c(c1)OCO2)NCc1ccc(Cl)cc1 .
Key: inactive

---

Listing of entries alongside the reported cytotoxicity.
Experiment: viability loss of HPDE-C7K cells – cell-based, fluorescence, HTS, primary screen (AID 431);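 also: 0% = DMSO solvent wells and 100% = doxorubicin-treated wells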
Conditions: HPDE-C7K KRASV12 cells, Alamar Blue viability, 48 h; at 10 µM; stronger effect = higher value
Out of some 63,000 compounds screened, about 1,100 (1.7%) were called active. For the sample, actives were picked, then their nearest neighbours and some compounds at random. Entries with a potency or affinity are not part of this list.

As a guide, the following entries are already answered.
- O=C(c1ccco1)N1CCN(C(=O)c2cc(-c3ccncc3)nc3ccc(Br)cc23)CC1: 1.3% (inactive)
- O=C(Nc1ccc(O)cc1)c1ccc(C(=O)c2ccccc2)o1: -1.3% (inactive)
- CCCn1c(SCCN2C(=O)c3ccccc3C2=O)n[nH]c1=O: 2.1% (inactive)
- Cc1ncoc1C(=O)Nc1ccc(Oc2ccccc2)cc1: -7.3% (inactive)
- CCOC(=O)c1ccc(N=c2sc(C(=O)OC)cc(=O)n2Cc2ccco2)cc1: 119% (active)

Consider the additional compound presented here.
Exercise: Note cytotoxicity for the compound shown: CCC(C(=O)c1ccc(O)cc1)c1ccccc1 (stereo not given)
Key: 18.5% (inactive)

---

Experiment: viability loss of HPDE-C7K cells – cell-based, fluorescence, HTS, primary screen (AID 431);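 also: 0% = DMSO solvent wells and 100% = doxorubicin-treated wells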
Conditions: HPDE-C7K KRASV12 cells, Alamar Blue viability, 48 h; at 10 µM
Out of some 63,000 compounds screened, about 1,100 (1.7%) were called active.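 The calls were made as follows: active = compounds whose percent cytotoxicity in the single-dose primary screen, scaled between solvent and toxic-drug controls, exceeds 50; inactive = the rest.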 What follows is part of a selection rich in actives, with near analogues and random picks from the rest. Entries with a potency or affinity are not part of this list.
Result category, one only: yes (1) for active, no (0) for inactive

Solved entries (count: 2):
• CCC1S/C(=C(\C#N)C(=O)NCc2ccco2)N(c2ccc(Br)cc2)C1=O (stereo not given) = no (0)
• CC(C)N1CC=C2C(C#N)=C(N)C(C#N)(C#N)C(c3ccccc3)C2C1 (stereo not given) = no (0)

Exercise: Each compound tested received a call. Report the one for CC(=O)N1CC=C2C(C#N)=C(N)C(C#N)(C#N)[C@H](c3ccoc3)[C@H]2C1 .
Key: no (0)

Exercise: Each compound tested received a call. Report the one for O=C(Nc1ncc(Br)s1)C1CCCN1S(=O)(=O)c1cccc2cccnc12 (stereo not given) .
Key: no (0)

Exercise: Each compound tested received a call. Report the one for Cc1ccc(C)c(S(=O)(=O)NC(CCC(N)=O)C(=O)O)c1 (stereo not given) .
Key: no (0)

Exercise: Each compound tested received a call. Report the one for N#CC1=C(N)C(C#N)(C#N)[C@H](c2ccoc2)[C@H]2CN(Cc3ccccc3)CC=C12 .
Key: yes (1)

Exercise: Each compound tested received a call. Report the one for O=C(Nc1nccs1)c1cc2sccc2n1Cc1ccc(F)cc1 .
Key: no (0)

Exercise: Each compound tested received a call. Report the one for CC(C)NC(=O)CN(C(=O)CCC(=O)Nc1ccccn1)c1ccc(F)c(Cl)c1 .
Key: no (0)

Exercise: Each compound tested received a call. Report the one for Cc1ccc(C(=O)N2CCN(c3cccc(Cl)c3)CC2)cc1C .
Key: no (0)

Exercise: Each compound tested received a call. Report the one for COc1cc(CN2CCSCC2)cc(OC)c1OC .
Key: no (0)

---

Experiment: viability loss of HPDE-C7K cells – cell-based, fluorescence, HTS, primary screen (AID 431);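 also: 0% = DMSO solvent wells and 100% = doxorubicin-treated wells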
Settings: HPDE-C7K KRASV12 cells, Alamar Blue viability, 48 h; at 10 µM; stronger effect = higher value
Screen size: about 63,000 compounds; about 1,100 (1.7%) were called active. The list comes from a sample in which actives are over-represented; it also holds close analogues and randomly drawn compounds. Potency and affinity values are given separately.
Listing of entries alongside the reported cytotoxicity.
Hi! Could you send only the number? It should be in %, unit omitted.

- CCOc1ccc(N2Cc3ncccc3C2=O)cc1: -0.1

Exercise: Note cytotoxicity for the compound shown: CCOC(=O)C(C)Sc1nc(-c2cccs2)ccc1C#N (centres undefined)
Key: 59.5

Exercise: Note cytotoxicity for the compound shown: C=COC(=O)CSc1nc(-c2cccs2)ccc1C#N
Key: 40.6

Exercise: Note cytotoxicity for the compound shown: O=C(O)COc1ccc(C(=O)Cc2ccc3c(c2)OCCCO3)c(O)c1
Key: -4.8

Exercise: Note cytotoxicity for the compound shown: CC(=O)c1cccc(NC(=O)CN(Cc2ccccc2)S(C)(=O)=O)c1
Key: -3.4

Exercise: Note cytotoxicity for the compound shown: C=CCn1c(SCCN2CCOCC2)nc2c1c(=O)[nH]c(=O)n2C
Key: -10.8

---

Experiment: viability loss of HPDE-C7K cells – cell-based, fluorescence, HTS, primary screen (AID 431);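 also: 0% = DMSO solvent wells and 100% = doxorubicin-treated wells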
Details: HPDE-C7K KRASV12 cells, Alamar Blue viability, 48 h; at 10 µM; stronger effect = higher value
Among all 63,000 compounds or so, about 1,100 (1.7%) were called active. The sample as a whole holds a higher share of actives than the screen did. Measured potencies and affinities stand elsewhere.
value_kind: cytotoxicity

As a guide, the following entries are already answered.
- Cc1ccccc1C(=O)N1CCN(c2ccc(NC(=O)c3ccco3)cc2Cl)CC1: 14.5% (inactive)
- CCCCCCCC(=O)OCC(=O)[C@@]1(O)CC[C@H]2[C@@H]3CCC4=CC(=O)CC[C@]4(C)[C@H]3[C@@H](O)C[C@@]21C: -2.2% (inactive)
- c1ccc(-c2cc(-c3nn4c(-c5ccco5)nnc4s3)c3ccccc3n2)cc1: 51.3% (active)

Exercise: Note cytotoxicity for the molecule shown: CCOc1ccc(C(=O)Nc2c3c(nn2-c2cccc(C)c2C)CS(=O)C3)cc1 (stereo not given)
Key: -6.5% (inactive)

Exercise: Note cytotoxicity for the molecule shown: O=C(Nc1ccc(N2CCN(C(=O)c3ccccc3)CC2)c(Cl)c1)c1ccco1
Key: -11% (inactive)

Exercise: Note cytotoxicity for the molecule shown: CCCCCC(=O)O[C@]1(C(C)=O)CC[C@H]2[C@@H]3CCC4=CC(=O)CC[C@]4(C)[C@H]3CC[C@@]21C
Key: 118% (active)

Exercise: Note cytotoxicity for the molecule shown: Cc1nonc1NC(=O)CSc1nc2cc(Cl)ccc2c2c1CCCC2
Key: 36.2% (inactive)

Exercise: Note cytotoxicity for the molecule shown: Oc1ccccc1-c1nc(N2CCN(Cc3ccccc3)CC2)c2ccccc2n1
Key: 13% (inactive)

Exercise: Note cytotoxicity for the molecule shown: Cc1cc(C)n(S(=O)(=O)Cc2ccccc2)n1
Key: -3.7% (inactive)

Exercise: Note cytotoxicity for the molecule shown: O=C(c1nc2nc(-c3ccc(Cl)cc3)cc(C(F)(F)F)n2n1)N1CCOCC1
Key: 3.6% (inactive)
